Quick list: viability at 1000 µM per entry.
- Tested on: HT29 (colon)
- assayExplanation: Cell viability at 1 mM (CellTiter-GLO), HT29
- Format: cell-based
- conditions: Homo sapiens, HT-29; 1.0 mM in DMSO, 48 h, HT29; read-out: Percent Cell Viability of Treated Cell Lines at 1.0 mM, HT29
Numbers only; they are read as %.

Examples with answers:
In [3]: df
Out[3]:
                                   compound  recordednumber
0  O=C1C2O[C@@H]2C[C@H]2C=C[C@@H]3CC4O[C@H]4C(=O)[C@H]3[C@H]12 (stereo partly drawn) [Compound 32]               1
1  CC1=C[C@@H]2[C@H](C(=O)CCC2(C)C)[C@H]2C(=O)[C@@H](C)CC[C@H]12 [Compound 36]              64
2  O=C1C=CC[C@H]2CC=C[C@@H]3CC=CC(=O)[C@H]3[C@H]12 [Compound 25]               0
3  O=C1CCC[C@H]2CC[C@@H]3CCCC(=O)[C@H]3[C@H]12 [Compound 33]              51
4  O=C1C=CC[C@@H]2[C@@H]1[C@@H]1C(=O)C=CC[C@H]1C1O[C@H]12 (stereo partly drawn) [Compound 31]               0
5  CC1=CC[C@@H]2C(C)=C[C@@]3(C)CC=CC(=O)[C@@H]3[C@H]2C1=O [Compound 20]              31

input: Return the recorded viability at 1000 µM value; entry: O=C1C=CC[C@H]2C=C[C@@H]3CC=CC(=O)[C@H]3[C@H]12 [Compound 13]
output: 2

input: Return the recorded viability at 1000 µM value; entry: CC1=CC[C@H]2C(C)=CCC3(CCC=CC3=O)[C@@H]2C1=O (stereo partly drawn) [Compound 24]
output: 0

input: Return the recorded viability at 1000 µM value; entry: CC1=CC[C@H]2C=C[C@@H]3CC=C(C)C(=O)[C@H]3[C@@H]2C1=O [Compound 14]
output: 1

meta.source: patent US11286226B2
